Reference source: ChEMBL document CHEMBL5715937

Assay: Inhibition of BCR-ABL M244V mutant (unknown origin) expressed in mouse BaF3 cells assessed as inhibition of cell growth incubated for 72 hrs by […] CellTiter96 viability analysis
Details: BaF3, 72 h
pIC50: −log10 of the molar value.
// reported pIC50 for each item listed

{"molecule": "Cc1nc(Nc2ncc(C(=O)Nc3c(C)cccc3Cl)s2)cc(N2CCN(CCO)CC2)n1 [DASATINIB ANHYDROUS]", "pIC50": 8.89}
{"molecule": "Cc1ccc(NC(=O)c2ccc(CN3CCN(C)CC3)cc2)cc1Nc1nccc(-c2cccnc2)n1", "pIC50": 5.70}
